Biological target: ErbB2 with Exon 20 YVMA insertion (HER2-YVMA) (Homo sapiens (Human), UniProt P04626, INS775YVMA)
Sequence (P04626 other isoform, or with tags, fused parts or gaps ins YVMA behind 775): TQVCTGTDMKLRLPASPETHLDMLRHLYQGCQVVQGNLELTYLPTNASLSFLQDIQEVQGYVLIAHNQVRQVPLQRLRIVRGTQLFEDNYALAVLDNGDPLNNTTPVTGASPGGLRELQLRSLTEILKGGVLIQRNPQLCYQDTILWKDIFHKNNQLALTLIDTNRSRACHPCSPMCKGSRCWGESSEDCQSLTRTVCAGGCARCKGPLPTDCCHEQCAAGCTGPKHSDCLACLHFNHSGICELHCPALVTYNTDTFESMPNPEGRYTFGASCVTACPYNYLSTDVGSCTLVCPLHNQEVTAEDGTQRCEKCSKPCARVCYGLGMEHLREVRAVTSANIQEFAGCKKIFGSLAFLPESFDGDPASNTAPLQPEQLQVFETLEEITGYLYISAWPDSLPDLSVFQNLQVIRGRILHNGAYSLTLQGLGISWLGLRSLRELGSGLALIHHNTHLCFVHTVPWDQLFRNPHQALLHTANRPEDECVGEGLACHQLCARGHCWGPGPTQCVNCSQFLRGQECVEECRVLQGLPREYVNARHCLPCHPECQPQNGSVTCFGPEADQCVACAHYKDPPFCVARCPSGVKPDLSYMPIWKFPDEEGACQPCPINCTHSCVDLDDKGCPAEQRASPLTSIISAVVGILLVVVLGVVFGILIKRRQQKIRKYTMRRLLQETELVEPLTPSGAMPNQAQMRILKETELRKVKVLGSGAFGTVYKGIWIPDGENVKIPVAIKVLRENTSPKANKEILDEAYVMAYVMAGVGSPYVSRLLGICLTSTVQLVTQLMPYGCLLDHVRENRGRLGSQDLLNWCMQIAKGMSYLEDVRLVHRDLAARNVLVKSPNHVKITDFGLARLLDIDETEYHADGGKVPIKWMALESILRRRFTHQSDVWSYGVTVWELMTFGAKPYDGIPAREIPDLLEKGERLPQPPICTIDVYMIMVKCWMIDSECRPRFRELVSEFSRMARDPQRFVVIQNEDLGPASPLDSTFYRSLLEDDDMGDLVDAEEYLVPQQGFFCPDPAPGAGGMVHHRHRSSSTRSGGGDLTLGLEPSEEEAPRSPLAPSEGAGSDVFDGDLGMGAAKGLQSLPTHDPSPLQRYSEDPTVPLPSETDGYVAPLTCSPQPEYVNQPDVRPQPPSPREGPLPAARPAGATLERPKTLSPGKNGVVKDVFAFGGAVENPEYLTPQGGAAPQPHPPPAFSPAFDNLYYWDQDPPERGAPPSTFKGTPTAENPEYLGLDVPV
Assay: Cellular phosphorylation assay, constitutive ErbB2 phosphorylation (Y1196) in engineered NIH 3T3 cells, Assay 4
pIC50: −log10 of the molar value.
metric-name: pIC50

molecule | val
Cc1cc(Nc2ncnc3cnc(N4CC[C@H](F)[C@@H](O)C4)nc23)ccc1Oc1ccc2c(c1)ncn2C | 7.44
CC1(C)CN(c2ncc3ncnc(Nc4ccc(Oc5ccn6ncnc6c5)c(Cl)c4)c3n2)C[C@H]1O | 6.23
Cn1cnc2cc(Oc3ccc(Nc4ncnc5cnc(N6CCC6)nc45)cc3Cl)ccc21.O=C(O)C(F)(F)F [Example 148, 2,2,2-trifluoroacetate] | 7.89
Cc1cc(Nc2ncnc3cnc(N4CCC(F)(F)C4)nc23)ccc1Oc1ccc2c(c1)ncn2C | 7.52
O[C@@H]1CN(c2ncc3ncnc(Nc4ccc(Oc5ccn6ncnc6c5)c(Cl)c4)c3n2)CC1(F)F | 7.22
Cc1cc(Nc2ncnc3cnc(N4CC[C@H](O)C4)nc23)ccc1Oc1ccc2c(c1)ncn2C | 8.10
Cc1cc(Nc2ncnc3cnc(N4C[C@H]5COC[C@H]5C4)nc23)ccc1Oc1ccc2c(c1)ncn2C | 7.79

* * *

Molecular target: UniProt P08183
Sequence (P08183 whole entry): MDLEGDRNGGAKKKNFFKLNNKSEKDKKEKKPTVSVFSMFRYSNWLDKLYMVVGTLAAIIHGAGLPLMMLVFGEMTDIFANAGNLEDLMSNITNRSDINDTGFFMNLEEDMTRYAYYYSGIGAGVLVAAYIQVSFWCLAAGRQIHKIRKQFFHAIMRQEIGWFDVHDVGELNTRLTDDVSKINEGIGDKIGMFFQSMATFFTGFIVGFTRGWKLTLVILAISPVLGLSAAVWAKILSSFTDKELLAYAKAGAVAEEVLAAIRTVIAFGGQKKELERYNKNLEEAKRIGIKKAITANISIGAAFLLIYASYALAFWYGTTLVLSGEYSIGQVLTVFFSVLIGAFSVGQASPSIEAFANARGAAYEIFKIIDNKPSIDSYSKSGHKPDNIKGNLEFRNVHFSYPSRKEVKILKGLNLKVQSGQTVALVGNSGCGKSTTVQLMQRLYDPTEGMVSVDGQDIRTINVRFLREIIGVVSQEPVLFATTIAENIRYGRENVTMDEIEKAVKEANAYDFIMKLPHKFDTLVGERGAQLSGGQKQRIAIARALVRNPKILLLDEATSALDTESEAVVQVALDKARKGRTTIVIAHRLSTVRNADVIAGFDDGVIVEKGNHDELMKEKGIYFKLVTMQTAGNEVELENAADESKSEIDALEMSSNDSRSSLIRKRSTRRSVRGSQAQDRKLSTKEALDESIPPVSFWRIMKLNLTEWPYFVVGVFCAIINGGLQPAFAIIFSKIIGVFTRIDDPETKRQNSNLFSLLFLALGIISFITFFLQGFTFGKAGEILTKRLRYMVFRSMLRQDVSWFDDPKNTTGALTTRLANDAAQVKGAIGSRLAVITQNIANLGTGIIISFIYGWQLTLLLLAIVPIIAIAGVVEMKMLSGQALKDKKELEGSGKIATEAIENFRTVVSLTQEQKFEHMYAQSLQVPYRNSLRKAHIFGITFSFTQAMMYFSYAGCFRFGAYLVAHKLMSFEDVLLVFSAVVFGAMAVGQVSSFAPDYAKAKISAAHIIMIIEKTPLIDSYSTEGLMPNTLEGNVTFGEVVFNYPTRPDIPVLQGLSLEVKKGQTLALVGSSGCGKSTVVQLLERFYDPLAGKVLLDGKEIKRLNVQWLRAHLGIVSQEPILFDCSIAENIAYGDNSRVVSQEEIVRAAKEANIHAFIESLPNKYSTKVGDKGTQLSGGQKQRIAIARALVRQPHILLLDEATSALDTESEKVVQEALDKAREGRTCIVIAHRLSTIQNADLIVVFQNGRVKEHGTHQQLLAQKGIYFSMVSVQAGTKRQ
Assay: MDR1 transfected MDCKII canine Mdr1 knockout permeability/efflux, Assay 7
Conditions: dog, MDCK-MDR1
Recorded efflux ratio at 2 h, 1 μM values for a group of molecules are listed next.

molecule | test-target | efflux ratio at 2 h, 1 μM
Cc1cc(Nc2ncnc3cnc(N(C)[C@@H]4CNC[C@@H]4F)nc23)ccc1Oc1ccc2c(c1)ncn2C [Example 94] | UniProt P08183 | 12
Cc1cc(Nc2ncnc3cnc(N(C)CC4COC4)nc23)ccc1Oc1ccc2c(c1)ncn2C [Example 402] | UniProt P08183 | 1.4
Cc1cc(Nc2ncnc3cnc(N4C[C@@H]5COC[C@@H]54)nc23)ccc1Oc1ccc2c(c1)ncn2C [Example 348] | UniProt P08183 | 1.4
Cc1cc(Nc2ncnc3cnc(N4CC[C@](C)(O)C4)nc23)ccc1Oc1ccc2c(c1)ncn2C [Example 179] | UniProt P08183 | 1.9
Cc1cc(Nc2ncnc3cnc(N(C)[C@H]4C[C@H](O)C4)nc23)ccc1Oc1ccc2c(c1)ncn2C [Example 186] | UniProt P08183 | 1.4
CC1(O)CCN(c2ncc3ncnc(Nc4ccc(Oc5ccn6ncnc6c5)c(Cl)c4)c3n2)CC1 [Example 435] | UniProt P08183 | 1.2
Cc1cc(Nc2ncnc3cnc(N4CC[C@H](CC#N)C4)nc23)ccc1Oc1ccc2c(c1)ncn2C [Example 469] | UniProt P08183 | 1.6
Cc1c(Oc2ccc3c(c2)ncn3C)ccc(Nc2ncnc3cnc(N(C)[C@H]4C[C@@](C)(O)C4)nc23)c1F [Example 116] | UniProt P08183 | 1.3
Cc1cc(Nc2ncnc3cnc(N4CC[C@@](C)(O)C4)nc23)ccc1Oc1ccn2ncnc2c1 [Example 110] | UniProt P08183 | 1.9
COc1ncc2ncnc(Nc3ccc(Oc4ccc5c(c4)ncn5C)c(C)c3)c2n1 [Example 8, 2,2,2-trifluoroacetate] | UniProt P08183 | 1
Cc1cc(Nc2ncnc3cnc(N4CCN(C5COC5)CC4)nc23)ccc1Oc1ccc2c(c1)ncn2C [Example 159] | UniProt P08183 | 2.1
Cc1cc(Nc2ncnc3cnc(N(C)[C@H]4CCC[C@@H]4O)nc23)ccc1Oc1ccc2c(c1)ncn2C [Example 176] | UniProt P08183 | 1.4
CN(CCC(C)(C)O)c1ncc2ncnc(Nc3ccc(Oc4ccn5ncnc5c4)c(Cl)c3)c2n1 [Example 101] | UniProt P08183 | 1.5
Cn1cnc2cc(Oc3ccc(Nc4ncnc5cnc(N6CCN(C7COC7)CC6)nc45)cc3Cl)ccc21 [Example 485] | UniProt P08183 | 1.3
Cc1cc(Nc2ncnc3cnc(N4CC[C@@](C)(O)C4)nc23)ccc1Oc1ccc2c(c1)ncn2C [Example 154] | UniProt P08183 | 2.1
Cc1cc(Nc2ncnc3cnc(N4CCC(CC#N)C4)nc23)ccc1Oc1ccc2c(c1)ncn2C (centres unmarked) [Example 192] | UniProt P08183 | 1.6
Cc1cc(Nc2ncnc3cnc(N4C[C@@H](O)C(F)(F)C4)nc23)ccc1Oc1ccc2c(c1)ncn2C [Example 185] | UniProt P08183 | 2
Cc1cc(Nc2ncnc3cnc(N4CC[C@H](F)[C@@H](O)C4)nc23)ccc1Oc1ccc2c(c1)ncn2C [Example 162] | UniProt P08183 | 2.8
Cn1cnc2cc(Oc3ccc(Nc4ncnc5cnc(N6CCN[C@@H](C(F)(F)F)C6)nc45)cc3Cl)ccc21.O=C(O)C(F)(F)F [Example 146] | UniProt P08183 | 0.8
COc1ncc2ncnc(Nc3ccc(Oc4ccc5csnc5c4)c(C)c3)c2n1 [Example 7, 2,2,2-trifluoroacetate] | UniProt P08183 | 1.3
Cc1cc(Nc2ncnc3cnc(N(C)[C@H]4C[C@](C)(O)C4)nc23)ccc1Oc1ccc2c(c1)ncn2C [Example 171] | UniProt P08183 | 1.9
FC(F)(F)[C@@H]1CN(c2ncc3ncnc(Nc4ccc(Oc5ccn6ncnc6c5)c(Cl)c4)c3n2)CCN1 [Example 130] | UniProt P08183 | 1.3
Cc1cc(Nc2ncnc3cnc(N4C[C@H](O)C(F)(F)C4)nc23)ccc1Oc1ccc2c(c1)ncn2C [Example 170] | UniProt P08183 | 2.1
Cc1cc(Nc2ncnc3cnc(N4CCC[C@@](C)(O)C4)nc23)c(F)cc1Oc1ccc2c(c1)ncn2C [Example 218] | UniProt P08183 | 1.5
Cc1cc(Nc2ncnc3cnc(N4C[C@H](O)C5(CC5)C4)nc23)ccc1Oc1ccc2c(c1)ncn2C [Example 212] | UniProt P08183 | 2.8
Cc1cc(Nc2ncnc3cnc(N4C[C@@H](O)C5(CC5)C4)nc23)ccc1Oc1ccc2c(c1)ncn2C [Example 211] | UniProt P08183 | 3.3
Cc1cc(Nc2ncnc3cnc(N4CCC5COCC54)nc23)ccc1Oc1ccc2c(c1)ncn2C (centres unmarked) [Example 129] | UniProt P08183 | 1.4
Cc1cc(Nc2ncnc3cnc(N4C[C@H]5CCS(=O)(=O)[C@H]5C4)nc23)ccc1Oc1ccc2c(c1)ncn2C (racemic) [Example 92] | UniProt P08183 | 3.8
Cc1cc(Nc2ncnc3cnc(N4C[C@@H](F)[C@@H](O)C4)nc23)ccc1Oc1ccc2c(c1)ncn2C [Example 91] | UniProt P08183 | 2.5

* * *

# maps each entry to its pIC50
Target: EGFR (Homo sapiens (Human), UniProt P00533)
Sequence (P00533 25-1210): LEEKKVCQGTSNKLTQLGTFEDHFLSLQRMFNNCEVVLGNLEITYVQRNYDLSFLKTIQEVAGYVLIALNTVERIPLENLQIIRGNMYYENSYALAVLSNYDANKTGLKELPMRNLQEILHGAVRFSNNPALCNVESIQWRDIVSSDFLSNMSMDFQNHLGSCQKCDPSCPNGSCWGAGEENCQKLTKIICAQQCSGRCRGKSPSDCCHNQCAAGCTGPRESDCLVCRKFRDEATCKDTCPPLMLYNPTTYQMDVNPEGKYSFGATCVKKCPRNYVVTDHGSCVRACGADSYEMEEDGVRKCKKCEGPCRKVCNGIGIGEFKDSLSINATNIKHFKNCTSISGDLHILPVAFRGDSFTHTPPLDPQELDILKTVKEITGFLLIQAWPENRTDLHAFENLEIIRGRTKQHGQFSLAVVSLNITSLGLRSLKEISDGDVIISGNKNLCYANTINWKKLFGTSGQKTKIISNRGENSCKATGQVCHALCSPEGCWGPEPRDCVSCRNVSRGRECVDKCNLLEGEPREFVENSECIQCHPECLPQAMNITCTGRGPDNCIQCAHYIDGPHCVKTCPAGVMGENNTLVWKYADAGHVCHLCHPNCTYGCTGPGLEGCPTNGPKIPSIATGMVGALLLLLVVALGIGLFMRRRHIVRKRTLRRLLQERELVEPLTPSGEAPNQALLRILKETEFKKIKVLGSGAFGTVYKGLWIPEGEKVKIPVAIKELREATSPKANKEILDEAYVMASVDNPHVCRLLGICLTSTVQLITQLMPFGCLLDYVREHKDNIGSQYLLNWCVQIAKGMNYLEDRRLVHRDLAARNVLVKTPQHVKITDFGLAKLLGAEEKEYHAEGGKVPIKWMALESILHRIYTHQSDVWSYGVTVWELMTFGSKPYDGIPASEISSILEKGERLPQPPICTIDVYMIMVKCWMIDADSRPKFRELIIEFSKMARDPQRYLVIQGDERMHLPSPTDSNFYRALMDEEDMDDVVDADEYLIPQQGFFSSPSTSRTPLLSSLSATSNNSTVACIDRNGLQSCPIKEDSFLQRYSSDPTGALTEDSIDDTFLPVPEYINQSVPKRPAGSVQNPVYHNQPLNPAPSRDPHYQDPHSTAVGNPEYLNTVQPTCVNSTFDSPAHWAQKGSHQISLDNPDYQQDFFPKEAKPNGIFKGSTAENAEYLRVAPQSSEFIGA
Assay: ErbB enzyme assay (CisBio HTRF KinEASE-TK), Assay 3
Assay type: biochemical
pIC50: −log10 of the molar value.

compound | value-comparator | pIC50
Cn1cnc2cc(Oc3ccc(Nc4ncnc5cnc(N6CCN[C@@H](C(F)(F)F)C6)nc45)cc3Cl)ccc21.O=C(O)C(F)(F)F [Example 146, 2,2,2-trifluoroacetate] | = | 5.43
Cc1cc(Nc2ncnc3cnc(N4CCC(CC#N)C4)nc23)ccc1Oc1ccc2c(c1)ncn2C (stereo not shown) [Example 192] | ≤ | 5.00
Clc1cc(Nc2ncnc3cnc(N4CCOCC4)nc23)ccc1Oc1ccn2ncnc2c1 [Example 409] | = | 5.45
Cc1cc(Nc2ncnc3cnc(N4CC5CCC(C4)O5)nc23)ccc1Oc1ccc2c(c1)ncn2C [Example 256] | ≤ | 5.00
Cn1cnc2cc(Oc3ccc(Nc4ncnc5cnc(N6CCOCC6)nc45)cc3F)ccc21.O=C(O)C(F)(F)F [Example 80, 2,2,2-trifluoroacetate] | ≤ | 5.00
CON1CCN(c2ncc3ncnc(Nc4ccc(Oc5ccc6c(c5)ncn6C)c(C)c4)c3n2)CC1 [Example 35] | ≤ | 5.00
CO[C@H]1CN(c2ncc3ncnc(Nc4ccc(Oc5ccc6c(c5)ncn6C)c(C)c4)c3n2)C[C@H]1O [Example 197] | = | 5.06

* * *

Molecular target: EGFR wild type (EGFR WT) (Homo sapiens (Human))
Experiment: Cellular phosphorylation assay, EGF-stimulated EGFR phosphorylation in engineered NIH 3T3 cells, Phospho-EGFR DuoSet IC ELISA, Assay 5
Assay type: cell-based
Structures can show the parent of a compound that is named as a salt.
Catalogue of IC50 readings, one per entry.

compound | IC50
Cc1cc(Nc2ncnc3cnc(N(C)C4CC4)nc23)ccc1Oc1ccc2c(c1)ncn2C | ≥ 5 µM
Cc1cc(Nc2ncnc3cnc(N(C)CC(C)(C)O)nc23)ccc1Oc1cc(F)c2c(c1)ncn2C | ≥ 5 µM
Cc1cc(Nc2ncnc3cnc(N4CCN(C)[C@H](C)C4)nc23)ccc1Oc1ccc2c(c1)ncn2C | ≥ 5 µM
CON1CCN(c2ncc3ncnc(Nc4ccc(Oc5ccc6c(c5)ncn6C)c(C)c4)c3n2)CC1 | ≥ 5 µM
Cc1cc(Nc2ncnc3cnc(N4CC(O)(C(F)F)C4)nc23)ccc1Oc1ccc2c(c1)ncn2C [Example 160, hydrochloride] | ≥ 5 µM
COC[C@H](O)CN(C)c1ncc2ncnc(Nc3ccc(Oc4ccn5ncnc5c4)c(Cl)c3)c2n1 | ≥ 5 µM
O[C@H]1C[C@@H]2C[C@H]1CN2c1ncc2ncnc(Nc3ccc(Oc4ccn5ncnc5c4)c(Cl)c3)c2n1 | ≥ 5 µM
Cc1cc(Nc2ncnc3cnc(N4C[C@]5(CCOC5)CC4=O)nc23)ccc1Oc1ccc2c(c1)ncn2C | ≥ 5 µM
Cc1cc(Nc2ncnc3cnc(N4CC5(C4)CC(C)(O)C5)nc23)ccc1Oc1ccc2c(c1)ncn2C | ≥ 5 µM
Cc1cc(Nc2ncnc3cnc(N4CCP(C)(=O)CC4)nc23)ccc1Oc1ccc2c(c1)ncn2C | ≥ 5 µM
Cc1cc(Nc2ncnc3cnc(N4CC[C@@](C)(O)C4)nc23)ccc1Oc1ccn2ncnc2c1 | ≥ 5 µM
Cc1cc(Nc2ncnc3cnc(N4CCN[C@H](C(F)(F)F)C4)nc23)ccc1Oc1ccn2ncnc2c1 | ≥ 5 µM
Cn1cnc2cc(Oc3ccc(Nc4ncnc5cnc(N6CCC67COC7)nc45)cc3Cl)ccc21.O=C(O)C(F)(F)F | ≥ 5 µM
Cc1cc(Nc2ncnc3cnc(N4C[C@@H](F)[C@@H](O)C4)nc23)ccc1Oc1ccc2c(c1)ncn2C | ≥ 5 µM
Cc1cc(Nc2ncnc3cnc(N4C[C@H](O)C5(CC5)C4)nc23)ccc1Oc1ccc2c(c1)ncn2C | ≥ 5 µM
